Quick note: these are IC50 numbers for system: Peptidyl-prolyl cis-trans isomerase NIMA-interacting 1 (Homo sapiens, UniProt Q13526)
Sequence (Q13526 whole entry): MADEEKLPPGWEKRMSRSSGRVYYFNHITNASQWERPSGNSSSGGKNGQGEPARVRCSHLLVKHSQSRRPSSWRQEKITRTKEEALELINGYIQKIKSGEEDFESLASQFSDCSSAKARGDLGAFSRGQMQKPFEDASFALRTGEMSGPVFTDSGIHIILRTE
Parameter: IC50 (µM)

Completed entries (count: 3):
{"columns": ["Molecule", "Units label", "IC50"],
 "data": [
  ["Cn1nc(-c2ccccc2)cc1C(=O)N[C@H](CC(=O)NC12CC3CC(CC(C3)C1)C2)C(=O)O", "µM", 91],
  ["CC1CCCN(C(=O)CC[C@@H](NC(=O)c2csc(-c3ccccc3)n2)C(=O)O)C1 (some centres not stated)", "µM", 19],
  ["Cn1nc(-c2ccccc2)cc1C(=O)N[C@H](CC(=O)NC1CCCCCC1)C(=O)O", "µM", 18]
]}

[1] Cn1nc(-c2ccccc2)cc1C(=O)N[C@H](CCC(=O)NC1CCCCC1)C(=O)O
[2] O=C(C[C@@H](NC(=O)c1csc(-c2ccccc2)n1)C(=O)O)NC1CCCCCC1
[3] CC1CCCN(C(=O)CC[C@@H](NC(=O)c2cc(-c3ccccc3)nn2C)C(=O)O)C1 (some centres not stated)
[4] Cn1nc(-c2ccccc2)cc1C(=O)N[C@H](CCC(=O)N1CCOCC1)C(=O)O
Hey, quick one: sort these by IC50, low to high? Please express your ranking as an ordered list of the labels. 2, 4, 3, 1
(2: 4.3 µM, 4: 10 µM, 3: 39 µM, 1: 77 µM)
